Values were extracted from patent US8486951B2.

IC50 listing for selected compounds.
biological target: FMS kinase (Homo sapiens)
Sequence (P07333 20-972): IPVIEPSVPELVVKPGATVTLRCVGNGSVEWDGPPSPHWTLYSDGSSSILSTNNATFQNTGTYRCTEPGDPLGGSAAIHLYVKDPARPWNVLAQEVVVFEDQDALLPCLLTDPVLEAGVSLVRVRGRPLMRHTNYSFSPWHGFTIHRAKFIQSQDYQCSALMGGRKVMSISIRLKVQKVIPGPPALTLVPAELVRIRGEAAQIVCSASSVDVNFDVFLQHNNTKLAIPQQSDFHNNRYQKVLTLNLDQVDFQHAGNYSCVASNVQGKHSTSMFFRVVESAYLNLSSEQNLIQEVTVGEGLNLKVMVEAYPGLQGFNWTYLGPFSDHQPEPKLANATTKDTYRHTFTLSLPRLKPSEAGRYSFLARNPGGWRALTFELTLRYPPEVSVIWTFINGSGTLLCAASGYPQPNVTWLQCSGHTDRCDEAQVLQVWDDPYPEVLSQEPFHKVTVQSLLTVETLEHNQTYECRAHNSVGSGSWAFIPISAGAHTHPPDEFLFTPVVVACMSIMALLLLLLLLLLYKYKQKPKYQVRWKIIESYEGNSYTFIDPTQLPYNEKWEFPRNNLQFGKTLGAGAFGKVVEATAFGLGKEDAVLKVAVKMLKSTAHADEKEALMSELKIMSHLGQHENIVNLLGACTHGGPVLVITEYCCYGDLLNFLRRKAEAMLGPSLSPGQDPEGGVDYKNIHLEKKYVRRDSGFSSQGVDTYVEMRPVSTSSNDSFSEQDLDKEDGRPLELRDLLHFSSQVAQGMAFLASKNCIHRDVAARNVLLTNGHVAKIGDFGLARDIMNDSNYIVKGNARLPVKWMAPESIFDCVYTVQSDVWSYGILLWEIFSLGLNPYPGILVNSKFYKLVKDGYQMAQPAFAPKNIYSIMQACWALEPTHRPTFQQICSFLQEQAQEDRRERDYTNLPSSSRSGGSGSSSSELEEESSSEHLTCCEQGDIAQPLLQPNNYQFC

Some entries whose results are on file:
The compound listed as Cn1cc(-c2cc(Oc3ccc(NC(=O)C4(C(=O)NCc5ccccc5)CC4)cc3F)ccn2)cn1 has a reported IC50 of < 0.2 µM

For reference, reported IC50 for Cn1cc(-c2ccnc(Oc3ccc(F)c(NC(=O)C4(C(=O)Nc5ccc(F)cc5)CC4)c3)n2)cn1 stands at < 10 µM

Entry under test: Cn1cc(-c2cc(Oc3ccc(NC(=O)C4(C(=O)Nc5cccc(C(F)(F)F)c5)CC4)cc3F)ccn2)cn1 . Its IC50 was < 2 µM

***
Lookup result for Cn1cc(-c2cc(Oc3c(F)cc(NC(=O)NC(=O)Cc4ccc(F)cc4)cc3F)ccn2)cn1 ; measured IC50: < 10 µM

---

Known IC50 of a selection of molecules
Molecular target: UniProt P08581
Sequence (P08581 with tags, fused parts or gaps): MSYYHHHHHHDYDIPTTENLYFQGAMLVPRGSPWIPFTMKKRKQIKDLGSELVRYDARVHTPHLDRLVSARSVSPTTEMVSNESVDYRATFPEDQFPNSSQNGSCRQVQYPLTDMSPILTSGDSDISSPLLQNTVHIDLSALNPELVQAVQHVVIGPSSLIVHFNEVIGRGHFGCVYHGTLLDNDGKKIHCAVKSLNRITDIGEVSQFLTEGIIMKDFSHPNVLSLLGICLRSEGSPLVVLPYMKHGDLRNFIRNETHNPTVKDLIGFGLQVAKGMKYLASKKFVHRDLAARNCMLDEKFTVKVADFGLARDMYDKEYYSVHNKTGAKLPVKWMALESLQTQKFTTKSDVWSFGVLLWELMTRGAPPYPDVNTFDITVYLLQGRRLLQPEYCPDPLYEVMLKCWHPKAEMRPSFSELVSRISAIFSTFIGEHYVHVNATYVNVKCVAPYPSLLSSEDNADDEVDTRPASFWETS
Test: c-MET Kinase Assay (ADP production, pyruvate kinase/lactate dehydrogenase coupled)
Conditions: read-out: cMET Enzyme Assay
Description: In this assay, the oxidation of NADH (thus the decrease at A340 nm) was continuously monitored spectrophometrically. […] The absorption at 340 nm was monitored continuously for 2 hours at 30° C. on Polarstar Optima plate reader (BMG). The reaction rate was calculated using the 1.0 to 2.0 h time frame. […] IC50 values were calculated from a series of percent inhibition values determined at a range of inhibitor concentrations using software routines as implemented in the GraphPad Prism software package.

Query COC[C@H](NC(=O)C1(C(=O)Nc2ccc(Oc3ccnc(-c4cnn(C)c4)c3)c(F)c2)CC1)c1ccc(F)cc1 [Example 36] yields IC50 of < 2000 nM

Memo: C[C@H](NC(=O)C1(C(=O)Nc2ccc(Oc3ccnc(-c4cnn(C)c4)c3)c(F)c2)CC1)c1ccc(F)cc1 [Example 33] , reported IC50: < 2000 nM

IC50 recorded for this molecule, Cn1cc(-c2cc(Oc3cc(F)c(NC(=O)NC(=O)Cc4ccc(F)cc4)cc3F)ccn2)cn1 [Example 42] , is < 200 nM

---

biological target: UniProt P07333
pIC50: −log10 of the molar value.
Measured Metric: pIC50

Form: item Cc1cc(F)c(NC(=O)C2(C(=O)Nc3ccc(F)cc3)CC2)cc1Oc1nccc(-c2cnn(C)c2)n1 ; test system UniProt P07333; pIC50: > 5.00

With UniProt P07333 as the test system, Cc1cc(F)c(NC(=O)C2(C(=O)Nc3ccc(F)cc3)CC2)cc1Oc1nccc(-c2cn[nH]c2)n1 showed pIC50 of > 5.00

// compound Cc1ccc(NC(=O)C2(C(=O)Nc3ccc(Oc4ccnc(-c5cnn(C)c5)c4)cc3F)CC2)cc1 , assay UniProt P07333, pIC50 value: > 5.70

Attention now turns to another entry.
The compound Cc1c(Oc2ccnc(-c3cnn(C)c3)c2)ccc(NC(=O)C2(C(=O)Nc3ccc(F)cc3)CC2)c1F , tested on UniProt P07333, showed pIC50 of > 5.70

---

In this section, each of the molecules is paired with its reported pIC50.
target: PDGFRα kinase (Homo sapiens)
Sequence (P16234 24-1089): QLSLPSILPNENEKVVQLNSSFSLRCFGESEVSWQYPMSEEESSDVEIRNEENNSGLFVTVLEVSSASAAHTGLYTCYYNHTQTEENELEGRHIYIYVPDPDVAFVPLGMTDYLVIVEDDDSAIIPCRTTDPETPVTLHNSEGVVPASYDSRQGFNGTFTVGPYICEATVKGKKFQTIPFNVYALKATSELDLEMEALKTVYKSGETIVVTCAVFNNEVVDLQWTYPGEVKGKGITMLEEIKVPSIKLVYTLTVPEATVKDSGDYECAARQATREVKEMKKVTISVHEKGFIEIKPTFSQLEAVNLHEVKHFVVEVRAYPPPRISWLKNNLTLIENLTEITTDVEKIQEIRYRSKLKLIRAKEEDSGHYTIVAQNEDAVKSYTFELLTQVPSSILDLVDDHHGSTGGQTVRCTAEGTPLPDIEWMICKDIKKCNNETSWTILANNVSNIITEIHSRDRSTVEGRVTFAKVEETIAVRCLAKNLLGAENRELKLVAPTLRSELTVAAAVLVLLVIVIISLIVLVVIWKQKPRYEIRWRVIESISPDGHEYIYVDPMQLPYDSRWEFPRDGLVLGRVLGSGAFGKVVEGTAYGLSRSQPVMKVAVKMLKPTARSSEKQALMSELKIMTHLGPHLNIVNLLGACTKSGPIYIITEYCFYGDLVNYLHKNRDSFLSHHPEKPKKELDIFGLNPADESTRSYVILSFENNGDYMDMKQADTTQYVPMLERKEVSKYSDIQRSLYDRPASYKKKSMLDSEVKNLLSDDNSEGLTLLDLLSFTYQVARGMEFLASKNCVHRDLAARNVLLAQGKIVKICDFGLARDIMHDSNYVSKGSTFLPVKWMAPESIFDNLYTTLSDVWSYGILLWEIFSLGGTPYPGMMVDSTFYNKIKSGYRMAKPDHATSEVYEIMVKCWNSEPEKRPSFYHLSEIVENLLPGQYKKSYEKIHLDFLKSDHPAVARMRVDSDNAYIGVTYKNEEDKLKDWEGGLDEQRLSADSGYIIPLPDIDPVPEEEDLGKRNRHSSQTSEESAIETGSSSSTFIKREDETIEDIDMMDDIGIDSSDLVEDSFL
pIC50: −log10 of the molar value.

Before answering, review these 5 worked examples.
According to the records, this molecule O=C(Nc1ccc(F)cc1)C1(C(=O)Nc2ccc(Oc3ccnc(-c4cnn(CCO)c4)c3)c(F)c2)CC1 displays pIC50 of > 5.70

Form field pIC50, entry CN(C(=O)C1(C(=O)Nc2ccc(F)cc2)CC1)c1ccc(Oc2ccnc(-c3cnn(C)c3)c2)c(F)c1 : > 5.00

pIC50 in this record for C[C@@H](NC(=O)C1(C(=O)Nc2ccc(Oc3ccnc(-c4cnn(C)c4)c3)c(F)c2)CC1)c1ccccc1 : > 5.00

Reported pIC50 ( Cn1cc(-c2cc(Oc3ccc(NC(=O)C4(C(=O)Nc5ccc(F)cc5)CC4)c(F)c3)ccn2)cn1 ) = > 5.70

The molecule listed as Cn1cc(-c2cc(Oc3cc(F)c(NC(=O)NC(=O)Cc4ccc(F)cc4)cc3F)ccn2)cn1 shows pIC50 equal to > 6.70

Next:
Lookup result for Cn1cc(-c2cc(Oc3ccc(NC(=O)C4(C(=O)Nc5ccc(F)cc5)CC4)nc3)ccn2)cn1 ; measured pIC50: > 5.70

Sample Cn1cc(-c2cc(Oc3ccc(NC(=O)C4(C(=O)Nc5cccc(C(F)(F)F)c5)CC4)cc3F)ccn2)cn1 ; pIC50 observed: > 5.70
